test system: HS729; assay: standardised AUC of viability dose-response curve (72 h) (fraction (0-1)); higher = less growth inhibition (more resistant)
readout.kind: standardised AUC

Example cases with answers are listed next.
• CC(C)(O)CNc1nc(Nc2ccnc(C(F)(F)F)c2)nc(-c2cccc(C(F)(F)F)n2)n1 = 0.997
• CCc1cnn2c(NCc3ccc[n+]([O-])c3)cc(N3CCCC[C@H]3CCO)nc12 = 0.64

// batch mode: one standardised AUC value per listed entry
1. CC#CC(=O)N1CCC[C@H]1c1nc(-c2ccc(C(=O)Nc3ccccn3)cc2)c2c(N)nccn12
2. O=c1sn(-c2cccc3ccccc23)c(=O)n1Cc1ccccc1

1: 0.995; 2: 0.913
